# systemName: MMP-7 (Homo sapiens)
# Construct: purchased SIGMA CC1059
# Sequence (P09237 95-267): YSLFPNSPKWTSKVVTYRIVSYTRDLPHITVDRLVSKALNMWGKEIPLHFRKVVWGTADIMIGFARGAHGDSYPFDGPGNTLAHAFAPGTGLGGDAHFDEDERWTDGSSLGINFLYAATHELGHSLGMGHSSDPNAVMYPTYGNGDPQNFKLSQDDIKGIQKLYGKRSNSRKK
# assayProcedure: FRET peptide cleavage efficiency with MMP-7 (standard pH 7.5; also pH 6.5)
# Format: biochemical
# settings: t = 15 min (Table 9)
Square brackets hold non-standard residues; d marks the D form. Ends that are not written are not given here. Tyr(3-NO2) = N[C@@H](Cc1ccc(O)c([N+](=O)[O-])c1)C(=O)O; Nle = CCCC[C@H](N)C(=O)O; 2Abz = Nc1ccccc1C(=O)O
Everything with % cleavage MMP-7 t = 15 min lower than 20% is FALSE; everything else, including exactly 20%, is TRUE.

substance | systemName | group
RGRKSPYMLQG ([2Abz]RGRKSPYMLQG[Tyr(3-NO2)]-NH2) [LNK037] | MMP-7 (Homo sapiens) | FALSE
RGRKSPQPLVD ([2Abz]RGRKSPQPLVD[Tyr(3-NO2)]-NH2) [LNK040] | MMP-7 (Homo sapiens) | TRUE
RGRRVANLVG ([2Abz]RGRRVANLVG[Tyr(3-NO2)]-NH2) [LNK033] | MMP-7 (Homo sapiens) | TRUE
RGRKSPY-Nle-LQG ([2Abz]RGRKSPY[Nle]LQG[Tyr(3-NO2)]-NH2) [LNK038] | MMP-7 (Homo sapiens) | TRUE
RQRRSPLGLAG ([2Abz]RQRRSPLGLAG[Tyr(3-NO2)]-NH2) [LNK010] | MMP-7 (Homo sapiens) | FALSE

###

# systemName: Kallikrein-3 (Homo sapiens)
# Sequence (P07288 25-261, species assumed): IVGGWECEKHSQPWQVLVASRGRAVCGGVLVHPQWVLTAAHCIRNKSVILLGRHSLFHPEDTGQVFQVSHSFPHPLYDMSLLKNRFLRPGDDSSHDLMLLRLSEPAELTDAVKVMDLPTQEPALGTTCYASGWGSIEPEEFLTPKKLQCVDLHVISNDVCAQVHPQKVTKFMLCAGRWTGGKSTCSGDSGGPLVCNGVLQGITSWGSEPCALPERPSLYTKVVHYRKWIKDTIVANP
# assayProcedure: FRET peptide cleavage efficiency with Kallikrein-3
# Type: biochemical
# settings: t = 6 h; peptide 200 uM, Kallikrein-3 2 μg/ml, 37° C., pH 8
Square brackets hold non-standard residues; d marks the D form. Ends that are not written are not given here. Tyr(3-NO2) = N[C@@H](Cc1ccc(O)c([N+](=O)[O-])c1)C(=O)O; 2Abz = Nc1ccccc1C(=O)O
So basically: is Kallikrein-3 t = 6 h % cleavage under 60%? Then satisfied. Not under? Then not satisfied.

substance | systemName | group
RGRRHSSKLQPLGYFGKL ([2Abz]RGRRHSSKLQPLGYFGKL[Tyr(3-NO2)]-NH2) [LNK062] | Kallikrein-3 (Homo sapiens) | not satisfied
SSQYSSPG ([2Abz]SSQYSSPG[Tyr(3-NO2)]-NH2) [LNK069] | Kallikrein-3 (Homo sapiens) | satisfied
HSSKLQL ([2Abz]HSSKLQL[Tyr(3-NO2)]-NH2) [LNK078] | Kallikrein-3 (Homo sapiens) | not satisfied
KSKQHSL ([2Abz]KSKQHSL[Tyr(3-NO2)]-NH2) [LNK077] | Kallikrein-3 (Homo sapiens) | satisfied
HSSKLQYFGKL ([2Abz]HSSKLQYFGKL[Tyr(3-NO2)]-NH2) [LNK061] | Kallikrein-3 (Homo sapiens) | satisfied

###

# systemName: MMP-2 (Homo sapiens, UniProt P08253)
# Construct: purchased SIGMA PF023
# Sequence (P08253 110-660): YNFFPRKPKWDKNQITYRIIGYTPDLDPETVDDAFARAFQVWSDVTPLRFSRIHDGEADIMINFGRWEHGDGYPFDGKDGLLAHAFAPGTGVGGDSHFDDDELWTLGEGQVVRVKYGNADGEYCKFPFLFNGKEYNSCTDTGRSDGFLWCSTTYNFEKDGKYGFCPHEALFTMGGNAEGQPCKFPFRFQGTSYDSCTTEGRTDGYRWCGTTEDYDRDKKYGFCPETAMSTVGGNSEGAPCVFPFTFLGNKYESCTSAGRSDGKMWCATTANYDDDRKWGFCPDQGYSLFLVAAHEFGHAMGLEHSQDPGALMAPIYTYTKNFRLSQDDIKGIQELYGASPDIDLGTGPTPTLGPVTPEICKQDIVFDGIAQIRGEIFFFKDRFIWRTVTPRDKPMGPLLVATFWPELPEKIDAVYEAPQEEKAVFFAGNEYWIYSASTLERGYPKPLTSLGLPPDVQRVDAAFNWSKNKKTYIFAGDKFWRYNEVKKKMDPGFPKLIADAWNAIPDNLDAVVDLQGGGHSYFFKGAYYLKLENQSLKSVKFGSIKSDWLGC
# assayProcedure: FRET peptide cleavage efficiency with MMP-2
# Assay type: biochemical
# settings: t = 120 min; 200 uM linker, 1 ug/ml protease, 37° C., buffer C pH 7.5
Square brackets hold non-standard residues; d marks the D form. Ends that are not written are not given here. Tyr(3-NO2) = N[C@@H](Cc1ccc(O)c([N+](=O)[O-])c1)C(=O)O; 2Abz = Nc1ccccc1C(=O)O

substance | % cleavage MMP-2 t = 120 min
RGRRHSSKLQ ([2Abz]RGRRHSSKLQ[Tyr(3-NO2)]-NH2) [LNK052] | 4%
RGRRPLGLAG ([2Abz]RGRRPLGLAG[Tyr(3-NO2)]-NH2) [LNK049] | 100%
RGRRVANYFGKL ([2Abz]RGRRVANYFGKL[Tyr(3-NO2)]-NH2) [LNK055] | 100%
SQYQSSPG ([2Abz]SQYQSSPG[Tyr(3-NO2)]-NH2) [LNK067] | 10%
RRLNYSL ([2Abz]RRLNYSL[Tyr(3-NO2)]-NH2) [LNK074] | 9%
RGRRVANPLGYFGKL ([2Abz]RGRRVANPLGYFGKL[Tyr(3-NO2)]-NH2) [LNK058] | 100%
SGRVLPLGMRA ([2Abz]SGRVLPLGMRA[Tyr(3-NO2)]-NH2) [LNK023] | 98%
SGRVAGLVG ([2Abz]SGRVAGLVG[Tyr(3-NO2)]-NH2) [LNK016] | 99%
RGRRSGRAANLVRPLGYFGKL ([2Abz]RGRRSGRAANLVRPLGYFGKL[Tyr(3-NO2)]-NH2) [LNK059] | 100%

###

# systemName: MMP-2 (Homo sapiens, UniProt P08253)
# Construct: purchased SIGMA PF023
# Sequence (P08253 110-660): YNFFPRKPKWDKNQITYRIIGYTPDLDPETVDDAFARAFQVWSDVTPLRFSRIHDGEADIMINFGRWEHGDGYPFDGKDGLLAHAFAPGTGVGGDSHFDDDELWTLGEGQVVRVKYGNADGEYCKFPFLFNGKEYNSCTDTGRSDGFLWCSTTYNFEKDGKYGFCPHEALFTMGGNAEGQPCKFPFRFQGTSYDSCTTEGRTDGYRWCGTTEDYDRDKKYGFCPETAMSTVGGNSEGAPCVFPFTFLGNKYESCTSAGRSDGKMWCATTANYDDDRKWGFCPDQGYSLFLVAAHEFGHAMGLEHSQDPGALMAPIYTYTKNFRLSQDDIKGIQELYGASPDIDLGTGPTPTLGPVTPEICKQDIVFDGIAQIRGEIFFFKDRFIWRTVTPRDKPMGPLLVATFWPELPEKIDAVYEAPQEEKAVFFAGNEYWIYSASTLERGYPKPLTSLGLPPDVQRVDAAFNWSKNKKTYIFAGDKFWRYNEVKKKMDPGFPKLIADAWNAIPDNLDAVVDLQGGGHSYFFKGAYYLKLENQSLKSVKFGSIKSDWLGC
# assayProcedure: FRET peptide cleavage efficiency with MMP-2
# Type: biochemical
# settings: t = 60 min (Table 9)
Square brackets hold non-standard residues; d marks the D form. Ends that are not written are not given here. Tyr(3-NO2) = N[C@@H](Cc1ccc(O)c([N+](=O)[O-])c1)C(=O)O; Nle = CCCC[C@H](N)C(=O)O; 2Abz = Nc1ccccc1C(=O)O

substance | % cleavage MMP-2 t = 60 min [%]
SGRVYMLQG ([2Abz]SGRVYMLQG[Tyr(3-NO2)]-NH2) [LNK044] | 0
SGRVLRKAGPANLVG ([2Abz]SGRVLRKAGPANLVG[Tyr(3-NO2)]-NH2) [LNK014] | 96
SGRVAPY-Nle-LQG ([2Abz]SGRVAPY[Nle]LQG[Tyr(3-NO2)]-NH2) [LNK043] | 78
RGRKSPY-Nle-LQG ([2Abz]RGRKSPY[Nle]LQG[Tyr(3-NO2)]-NH2) [LNK038] | 55
RGRRPLGLAGGSG ([2Abz]RGRRPLGLAGGSG[Tyr(3-NO2)]-NH2) [LNK051] | 100
RGRRVANPLGYFGKL ([2Abz]RGRRVANPLGYFGKL[Tyr(3-NO2)]-NH2) [LNK058] | 100
RGRRGP ([2Abz]RGRRGP[Tyr(3-NO2)]-NH2) [LNK048] | 0
RGRKPQPLVD ([2Abz]RGRKPQPLVD[Tyr(3-NO2)]-NH2) [LNK039] | 38
RGRKVANLVG ([2Abz]RGRKVANLVG[Tyr(3-NO2)]-NH2) [LNK031] | 100
RGRRPLGYFGKL ([2Abz]RGRRPLGYFGKL[Tyr(3-NO2)]-NH2) [LNK057] | 100
RGRKSPYMLQG ([2Abz]RGRKSPYMLQG[Tyr(3-NO2)]-NH2) [LNK037] | 70
RSSYRSL ([2Abz]RSSYRSL[Tyr(3-NO2)]-NH2) [LNK075] | 60
RGRRHSSKLQ ([2Abz]RGRRHSSKLQ[Tyr(3-NO2)]-NH2) [LNK052] | 2
SGRVLRKAGPQPLVD ([2Abz]SGRVLRKAGPQPLVD[Tyr(3-NO2)]-NH2) [LNK003] | 34
SGRVAPQPLVD (not fully specified (N-terminus, C-terminus)) [LNK046] | 64
RGRKPYMLQG ([2Abz]RGRKPYMLQG[Tyr(3-NO2)]-NH2) [LNK035] | 77
SGRHSSKLQPLGYFGKL ([2Abz]SGRHSSKLQPLGYFGKL[Tyr(3-NO2)]-NH2) [LNK063] | 100
RGRRAANLVRPLGYFGKL ([2Abz]RGRRAANLVRPLGYFGKL[Tyr(3-NO2)]-NH2) [LNK060] | 100
